Cited source: ChEMBL document CHEMBL1961873

What inhibition was measured for each of the following?
biological target: Tyrosine-protein kinase Lyn (Homo sapiens) (UniProt P07948); details: at 0.1 µM;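 further: mean inhibition of the LYN B splice variant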
Sequence (P07948 2-512 limits assumed): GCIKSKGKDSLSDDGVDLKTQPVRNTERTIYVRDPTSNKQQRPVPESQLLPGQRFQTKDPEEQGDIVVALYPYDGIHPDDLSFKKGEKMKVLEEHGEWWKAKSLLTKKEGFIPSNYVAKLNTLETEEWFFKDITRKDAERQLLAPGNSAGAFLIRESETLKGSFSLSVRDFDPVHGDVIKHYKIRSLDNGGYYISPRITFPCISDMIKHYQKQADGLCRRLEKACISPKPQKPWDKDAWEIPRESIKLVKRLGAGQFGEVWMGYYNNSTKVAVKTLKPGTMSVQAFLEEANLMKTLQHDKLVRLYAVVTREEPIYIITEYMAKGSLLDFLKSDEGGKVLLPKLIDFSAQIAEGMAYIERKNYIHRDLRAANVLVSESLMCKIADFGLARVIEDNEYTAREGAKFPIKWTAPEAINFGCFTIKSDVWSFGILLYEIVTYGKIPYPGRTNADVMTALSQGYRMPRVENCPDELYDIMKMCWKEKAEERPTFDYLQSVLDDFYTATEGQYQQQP
Description: GSK_PKIS: LYN B (splice variant) mean inhibition at 0.1 uM [Nanosyn]
Answers are plain numbers, in %.

testSmiles	measuredOn	valueUnits	assayValue
COc1ccc(-c2oc3ncnc(N)c3c2-c2ccc(NC(=O)Nc3cc(C(F)(F)F)ccc3F)cc2)cc1	Tyrosine-protein kinase Lyn (Homo sapiens) (UniProt P07948)	%	43.3
Cc1cccc(Nc2ncc(-c3ccccc3)o2)c1	Tyrosine-protein kinase Lyn (Homo sapiens) (UniProt P07948)	%	2.22

Take each entry in turn and give its inhibition.
1. NS(=O)(=O)c1ccc(Nc2ncc(-c3ccccc3)o2)cc1
2. CCn1c(-c2nonc2N)nc2cnc(Oc3cccc(NC(=O)c4ccc(N(C)C)cc4)c3)cc21
3. NS(=O)(=O)c1ccc(N/N=C2\C(=O)Nc3ccc4ncccc4c32)cc1
4. Fc1ccc(-c2nn3ccccc3c2-c2ccncc2)cc1
5. NC(=O)c1sc(-n2cnc3ccc(C(F)(F)F)cc32)cc1OCc1ccccc1Br

[2.72, 0.82, 6.92, 0.28, 2.92]

Take each entry in turn and give its inhibition.
1. COc1ccc2[nH]c3c4[nH]c5ccc(OC)cc5c4c4c(c3c2c1)C(=O)NC4=O
2. COc1ccc(CNC(=O)c2ccc(-c3cc(-c4nnc(C)o4)ccc3C)cc2)cc1
3. FC(F)(F)c1cccc(-c2nn3ncccc3c2-c2ccnc(Nc3ccc4c(c3)OCCO4)n2)c1
4. CN1CCC(n2cnc(-c3ccc(F)cc3)c2-c2ccnc(Nc3ccccc3)n2)CC1
5. O=C(Nc1n[nH]c2cc(-c3ccc(F)cc3)ccc12)C1CC1

1: 7.67; 2: 2.67; 3: 5.18; 4: 2.82; 5: 3.7

Take each entry in turn and give its inhibition.
1. O=C(O[C@H]1CN[C@H](C#Cc2cc3ncnc(Nc4ccc(Cc5ccccc5)cc4)c3s2)C1)N1CCOCC1
2. c1ccc(COc2ccc(Nc3ncnc4ccc(-c5ccco5)cc34)cc2)cc1
3. COc1cc2ncn(-c3cc(OCc4ccccc4C(F)(F)F)c(C(=O)N(C)C)s3)c2cc1OC

[0.33, 1.39, 0.93]

Take each entry in turn and give its inhibition.
1. CCN1CCC(CC(=O)Nc2n[nH]c3nnc(-c4cccc(F)c4F)cc23)CC1
2. CC(C)COC(=O)c1ccc2c(c1)/C(=C/Nc1ccc(S(N)(=O)=O)cc1)C(=O)N2
3. CCn1c(-c2nonc2N)nc2c(C#CC(C)(C)O)nc(OC[C@H](N)c3ccccc3)cc21
4. CCCN1CCC(c2ccc(Nc3nc(Nc4cc(F)ccc4C(N)=O)c4cc[nH]c4n3)c(OC)c2)CC1
5. COc1cccc(-n2ncc3c(N/N=C/c4ccc(F)cc4)ncnc32)c1

[2.16, 0.51, 2.36, 4.92, 14.6]

====

What inhibition was measured for each of the following?
target: Serine/threonine-protein kinase Chk2 (Homo sapiens); details: at 1 µM;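 further: reported value is the mean inhibition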
Give bare numbers, in %.

Take each entry in turn and give its inhibition.
1. Clc1ccc(-c2nn3ncccc3c2-c2ccnc(Nc3ccccc3)n2)cc1
2. NS(=O)(=O)c1ccc(N/N=C2\C(=O)Nc3ccc4ncccc4c32)cc1
3. COc1cc(/C=N/Nc2ncnc3[nH]ncc23)ccc1O

1.08
26.3
23.8

====

molecular target: Serine/threonine-protein kinase Sgk2 (Homo sapiens) (UniProt Q9HBY8); details: at 1 µM
Sequence (Q9HBY8 whole entry): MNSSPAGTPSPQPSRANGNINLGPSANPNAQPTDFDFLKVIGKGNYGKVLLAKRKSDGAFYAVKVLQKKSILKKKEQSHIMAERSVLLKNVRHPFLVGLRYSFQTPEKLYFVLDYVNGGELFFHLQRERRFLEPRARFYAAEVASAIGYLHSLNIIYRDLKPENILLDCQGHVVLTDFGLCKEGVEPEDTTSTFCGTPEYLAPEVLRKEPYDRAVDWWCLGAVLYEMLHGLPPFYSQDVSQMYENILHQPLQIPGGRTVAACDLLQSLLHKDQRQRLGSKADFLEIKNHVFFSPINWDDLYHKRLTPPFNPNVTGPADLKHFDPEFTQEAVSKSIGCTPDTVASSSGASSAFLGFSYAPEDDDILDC
Description: GSK_PKIS: SGK2 mean inhibition at 1 uM [Nanosyn]
assayEndpoint: inhibition (%)
Numbers only, in %.

Recorded inhibition, per entry:
testSmiles	assayEndpoint	valueUnits	assayValue
COc1ccc(-c2cc(-c3c[nH]nc3-c3ccccn3)ccn2)cc1	inhibition	%	5.93
c1cc(-c2cnn3nc(N4CCOCC4)ccc23)nc(NC2CC2)n1	inhibition	%	9.02
NC(=O)c1sc(-n2cnc3ccc(C(F)(F)F)cc32)cc1OCc1ccccc1Br	inhibition	%	3.21
COc1cc2ncn(-c3cc(OCc4ccccc4C(F)(F)F)c(C(=O)N(C)C)s3)c2cc1OC	inhibition	%	-0.51

Take each entry in turn and give its inhibition.
1. COc1ccc2[nH]c3c4[nH]c5ccc(OC)cc5c4c4c(c3c2c1)C(=O)NC4=O
2. CCn1c(-c2nonc2N)nc2ccccc21

[59.4, 9.28]
